Provenance of the data: patent US20100310640A1

target: T1, HLA-DR molecule DRB1*0404 (human); assay: radioligand inhibition, purified HLA-DR; details: remark: other sources report otherwise
T1 chain 1: not shown
T1 chain 2: not shown
endpoint: IC50 (nM)

* LREVRAVTSANIQEF [Peptide 9019.0046 (Her2/neu.350)] | 8.2

(A) ERGPLEHLYSLHIPN [Peptide 9019.0190 (IGFBP2.249)]
(B) HNQVRQVPLQRLRIV [Peptide 9019.0034 (Her2/neu.88)]
Incoming: Hi, I'm comparing two records. Which one has the lower IC50, A or B ? Write down the label attached to your selection.
Outgoing: A
